In this section we review reported melting point values for a set of compounds.

Some entries whose results are on file:
[
  {
    "Compound": "NC(=O)/C=C/c1ccc(C(c2cc(F)ccc2F)S(=O)(=O)c2ccc(Cl)cc2)nc1 (stereo unspecified)",
    "melting point": "219 to 220 °C"
  },
  {
    "Compound": "CON=C(CCC(=O)O)c1ccc(-c2ccc(Cl)cc2)cc1",
    "melting point": "183 to 186 °C"
  }
]

Task item: Entry under review: CC1=NN(C(=O)NS(=O)(=O)N(C)S(=O)(=O)N(C)C)C(c2cccs2)C1 (stereo unspecified) . Reported melting point?
Reply: 112 to 113 °C

Task item: Entry under review: CCC(CC)c1ccc(Cl)c2nc(Nc3ccc(C)cc3Br)n(CCCCO)c12 . Reported melting point?
Reply: 115 to 118 °C

Task item: Entry under review: Cc1ccc(C(NC2CCNCC2)(Oc2ccc(OCc3ccccc3)cc2)C(C)O)nc1 (stereo unspecified) . Reported melting point?
Reply: 123 to 125 °C

Task item: Entry under review: Cc1c(Cc2cccc(C(F)(F)F)c2)oc2c(-c3cccc(C(=O)O)c3)cccc12 . Reported melting point?
Reply: 200 to 201 °C

====

Property measured: melting point (°C)

[
  {
    "Molecule": "CN1C(=O)CCC2=C1CCc1cc(F)ccc12",
    "melting point (°C)": 108
  },
  {
    "Molecule": "O=C1COC(c2cccc(Cl)c2)c2cc(C3(c4ccc(Cl)cc4)OCCO3)ccc2N1 (centres undefined)",
    "melting point (°C)": 205
  },
  {
    "Molecule": "CC(C)c1ccc(-n2cc(C#N)cc2N)c(Br)c1",
    "melting point (°C)": 106
  },
  {
    "Molecule": "COc1cccc(OC)c1-c1ccc(C[C@H](NC(=O)c2c(Cl)cc(-c3cnccn3)cc2Cl)C(=O)O)cc1",
    "melting point (°C)": 146
  }
]

====

In this section we review reported melting point values for a set of compounds.

Some entries whose results are on file:
[
  {
    "Compound": "O=c1[nH]c2cc3ccccc3cc2[nH]c1=O",
    "melting point": "> 250 °C"
  },
  {
    "Compound": "CC(C)(c1ccc(O)cc1)c1ccc(-c2ccc(C(C)(C)c3ccc(O)cc3)cc2)cc1",
    "melting point": "195 to 196 °C"
  },
  {
    "Compound": "COCC(COC)Oc1cc(Oc2ccc(S(C)(=O)=O)nc2)cc2cc(C3=NCC(CCO)S3)[nH]c12 (centres undefined)",
    "melting point": "69 to 71 °C"
  }
]

// next entry
Task item: Entry under review: CCCCCCCCc1ccc(C(=O)CBr)cc1 . Reported melting point?
Reply: 33 to 34 °C

====

Property measured: melting point

Some entries whose results are on file:
[
  {
    "Compound": "CC(=O)Nc1nc(NC(C)=O)c2[nH]cnc2n1",
    "Test value": "293 to 295 °C"
  },
  {
    "Compound": "CC(C)n1c(=Nc2ccccc2)sc2ncccc2c1=O",
    "Test value": "85 to 86 °C"
  },
  {
    "Compound": "COc1ccc2c(c1)CC(CC(C)=O)C2=O (racemic)",
    "Test value": "73 °C"
  },
  {
    "Compound": "COCCN1CCN(C(=O)c2ccc3n2Cc2ccccc2N(C(=O)c2ccc(-c4ccccc4C(F)(F)F)c(C)c2)C3)CC1",
    "Test value": "140 to 144 °C"
  },
  {
    "Compound": "CC(=O)Nc1cc(-c2c(-c3cccc(C)c3)nc3cccnn23)ccn1",
    "Test value": "227 to 228 °C"
  }
]

Task item: Entry under review: C=CCc1cc(C=C(C(=O)OCC)C(=O)OCC)cc(OC)c1OC . Reported melting point?
Reply: 43 to 44 °C

Task item: Entry under review: CCO/C(=C\c1ccc(C#N)cc1)C(=O)O . Reported melting point?
Reply: 171 to 172 °C

Task item: Entry under review: CC(C)OCc1nc(C(C)(C)O)c(C(=O)OC(C)C)[nH]1 . Reported melting point?
Reply: 154 to 155 °C

Task item: Entry under review: Oc1ccc2[nH]cc(CCCCN3CCN(c4ccc5c(c4)CCCO5)CC3)c2c1 . Reported melting point?
Reply: 220 to 222 °C

Task item: Entry under review: Cn1cncc1C(O)(c1ccc2c(c1)c(-c1cccc(Cl)c1)cc(=O)n2C)c1nccn1C (stereo not drawn) . Reported melting point?
Reply: 130 °C

Reference for the values: a melting point compilation (Tetko et al.; mined from patent text by program, amines drawn as free bases though some values may be those of a salt)
